- Tested on: GFP-EBV B95-8 (EBV)
- method-notes: microbe, parasite or virus in culture
- Assay type: cell-based, Epstein–Barr virus (EBV)
- experimental-conditions: human gammaherpesvirus 4, read-out: EBV EC50 (95% CI)
// reported EC50 per item
quantity-measured: EC50 (µM)

INSERT INTO results (smiles_str, unit_tag, value_measured) VALUES
  ('O=S(=O)(O)OCCCCCCCCCSCC(CSCCCCCCCCCOS(=O)(=O)O)(CSCCCCCCCCCOS(=O)(=O)O)CSCCCCCCCCCOS(=O)(=O)O', 'µM', 33.9),
  ('O=S(=O)(O)OCCCCCCCCCSCc1cc(CSCCCCCCCCCOS(=O)(=O)O)cc(CSCCCCCCCCCOS(=O)(=O)O)c1', 'µM', 46.5);

###

- method-notes: HEK293T cell cytotoxicity (Zombie NIR flow cytometry)
- experimental-conditions: human
quantity-measured: CC50 at 2 days

INSERT INTO assay_data (smiles_str, value_measured) VALUES
  ('O=S(=O)(O)OCCCCCCCCCSCC(CSCCCCCCCCCOS(=O)(=O)O)(CSCCCCCCCCCOS(=O)(=O)O)CSCCCCCCCCCOS(=O)(=O)O', '122 µM');

###

- method-notes: in vitro
- experimental-conditions: African green monkey
quantity-measured: CC50 (µM)

INSERT INTO measurements (compound, value_comparator, value_measured) VALUES
  ('O=S(=O)(O)OCCCCCCCCCSCc1cc(CSCCCCCCCCCOS(=O)(=O)O)cc(CSCCCCCCCCCOS(=O)(=O)O)c1', '=', 14.7),
  ('O=S(=O)(O)OCCCCCCCCCCCSCc1cc(CSCCCCCCCCCCCOS(=O)(=O)O)cc(CSCCCCCCCCCCCOS(=O)(=O)O)c1 [B3C11S]', '=', 11.2),
  ('O=S(=O)(O)OCCCCCCCCCSCC(COS(=O)(=O)O)(COS(=O)(=O)O)CSCCCCCCCCCOS(=O)(=O)O', '>', 1300),
  ('O=S(=O)(O)OCCCCCCSCc1cc(CSCCCCCCOS(=O)(=O)O)cc(CSCCCCCCOS(=O)(=O)O)c1', '>', 530),
  ('O=S(=O)(O)OCCCCCCCCCCO[C@H]1[C@H](OS(=O)(=O)O)[C@H](OCCCCCCCCCCOS(=O)(=O)O)[C@H](OS(=O)(=O)O)[C@@H](OCCCCCCCCCCOS(=O)(=O)O)[C@@H]1OS(=O)(=O)O [I3C10S]', '>', 356),
  ('O=S(=O)(O)OCCCCCCCCCSCC(CSCCCCCCCCCOS(=O)(=O)O)(CSCCCCCCCCCOS(=O)(=O)O)CSCCCCCCCCCOS(=O)(=O)O', '=', 4),
  ('O=S(=O)(O)OCCCCCCCCCCn1cc(COc2cc(OCc3cn(CCCCCCCCCCOS(=O)(=O)O)nn3)cc(OCc3cn(CCCCCCCCCCOS(=O)(=O)O)nn3)c2)nn1 [BTA3C10S]', '>', 929),
  ('CCc1c(CSCCCCCCOS(=O)(=O)O)c(CC)c(CSCCCCCCOS(=O)(=O)O)c(CC)c1CSCCCCCCOS(=O)(=O)O', '=', 451),
  ('CCc1c(CSCCCCCCCCCOS(=O)(=O)O)c(CC)c(CSCCCCCCCCCOS(=O)(=O)O)c(CC)c1CSCCCCCCCCCOS(=O)(=O)O', '=', 17),
  ('O=S(=O)(O)OCCCCCCCCCSCC(COS(=O)(=O)O)(CSCCCCCCCCCOS(=O)(=O)O)CSCCCCCCCCCOS(=O)(=O)O', '=', 413),
  ('O=S(=O)(O)OCCCCCCCCCSCc1cccc(CSCCCCCCCCCOS(=O)(=O)O)c1CSCCCCCCCCCOS(=O)(=O)O', '=', 18.4),
  ('O=c1n(CCSCCCCCCCCCOS(=O)(=O)O)c(=O)n(CCSCCCCCCCCCOS(=O)(=O)O)c(=O)n1CCSCCCCCCCCCOS(=O)(=O)O', '=', 39.5);
